FYI, the data here is from paper PMC11525138.

- tested target: NanJGH33 (Clostridium perfringens, UniProt A0A0H2YT71)
- Sequence (A0A0H2YT71 373-820 limits assumed): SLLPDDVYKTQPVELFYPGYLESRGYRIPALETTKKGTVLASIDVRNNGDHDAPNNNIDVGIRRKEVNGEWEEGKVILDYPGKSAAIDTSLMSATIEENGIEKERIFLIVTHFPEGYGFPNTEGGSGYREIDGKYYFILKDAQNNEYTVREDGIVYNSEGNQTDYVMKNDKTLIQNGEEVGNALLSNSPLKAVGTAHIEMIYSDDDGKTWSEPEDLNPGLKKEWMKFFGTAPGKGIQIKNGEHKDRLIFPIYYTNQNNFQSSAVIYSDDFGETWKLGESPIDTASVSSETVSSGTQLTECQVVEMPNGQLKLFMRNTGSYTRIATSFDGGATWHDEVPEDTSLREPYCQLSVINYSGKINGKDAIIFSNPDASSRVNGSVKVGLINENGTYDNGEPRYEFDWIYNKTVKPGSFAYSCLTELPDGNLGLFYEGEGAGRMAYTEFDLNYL
- measurement description: biochemical
- Type: biochemical
- condition description: pH 6.8; read-out: Ki
readout kind: Ki

> print(dat)
                                     smiles                             tested.target  observed
1  CC(=O)N[C@H]1[C@H]([C@H](O)[C@H](O)CO)OC(C(=O)O)=C[C@@H]1O  NanJGH33 (Clostridium perfringens, UniProt A0A0H2YT71)    3.2 µM

====

- tested target: UniProt P10481
- Sequence (P10481 whole entry, looked up): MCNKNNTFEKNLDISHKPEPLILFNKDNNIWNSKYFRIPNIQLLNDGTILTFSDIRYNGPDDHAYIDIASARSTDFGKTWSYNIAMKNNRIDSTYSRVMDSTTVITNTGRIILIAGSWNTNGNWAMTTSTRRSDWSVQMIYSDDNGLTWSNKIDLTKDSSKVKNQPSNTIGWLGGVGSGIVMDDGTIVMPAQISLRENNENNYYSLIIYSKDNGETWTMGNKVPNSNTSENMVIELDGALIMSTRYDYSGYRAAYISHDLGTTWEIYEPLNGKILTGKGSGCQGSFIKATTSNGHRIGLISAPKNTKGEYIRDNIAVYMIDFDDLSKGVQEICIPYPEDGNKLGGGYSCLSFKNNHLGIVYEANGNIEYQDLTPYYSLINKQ
- measurement description: biochemical
- Type: biochemical
- condition description: pH 7; read-out: Ki
readout kind: Ki (µM)

> print(dat)
                                   molecule  measure.unit  observed
1  CC(=O)N[C@H]1[C@H]([C@H](O)[C@H](O)CO)OC(C(=O)O)=C[C@@H]1O [DANA]            µM      33.9
